The reported numbers originate from paper PMC10174255.

experiment: MTT cytotoxicity assay; conditions: African green monkey
Please provide measured CC50 for the entries that follow.
Numbers only, in µM.

COc1cc2c(cc1Cc1cccc(Cl)c1F)c(=O)c(C(=O)O)cn2[C@H](CO)C(C)C: 12.7
CC(C)(C(=O)c1cccnc1)c1cccnc1: 5600
O=C(O)Cc1ccc(-c2ccccc2)cc1: 525

Could you report CC50 for every entry in the following list?
1. CC(C)(C)C#Cc1cc(N(C(=O)[C@H]2CC[C@H](C)CC2)[C@H]2CC[C@H](O)CC2)c(C(=O)O)s1
2. Nc1nc(F)nc2nc[nH]c12
3. CO[C@H]1C[C@@H]2CC[C@@H](C)[C@@](O)(O2)C(=O)C(=O)N2CCCC[C@H]2C(=O)O[C@H]([C@H](C)C[C@@H]2CC[C@@H](OC(=O)C(C)(CO)CO)[C@H](OC)C2)CC(=O)[C@H](C)/C=C(\C)[C@@H](O)[C@@H](OC)C(=O)[C@H](C)C[C@H](C)/C=C/C=C/C=C/1C

Reply:
1: 31.5; 2: 437; 3: 413
